target: Estrogen receptor (Homo sapiens) (UniProt P03372); test: Downregulation of ER-alpha levels in ER-positive human MCF-7 cells at 3 uM after 24 hrs by in-cell Western assay
Sequence (P03372 whole entry): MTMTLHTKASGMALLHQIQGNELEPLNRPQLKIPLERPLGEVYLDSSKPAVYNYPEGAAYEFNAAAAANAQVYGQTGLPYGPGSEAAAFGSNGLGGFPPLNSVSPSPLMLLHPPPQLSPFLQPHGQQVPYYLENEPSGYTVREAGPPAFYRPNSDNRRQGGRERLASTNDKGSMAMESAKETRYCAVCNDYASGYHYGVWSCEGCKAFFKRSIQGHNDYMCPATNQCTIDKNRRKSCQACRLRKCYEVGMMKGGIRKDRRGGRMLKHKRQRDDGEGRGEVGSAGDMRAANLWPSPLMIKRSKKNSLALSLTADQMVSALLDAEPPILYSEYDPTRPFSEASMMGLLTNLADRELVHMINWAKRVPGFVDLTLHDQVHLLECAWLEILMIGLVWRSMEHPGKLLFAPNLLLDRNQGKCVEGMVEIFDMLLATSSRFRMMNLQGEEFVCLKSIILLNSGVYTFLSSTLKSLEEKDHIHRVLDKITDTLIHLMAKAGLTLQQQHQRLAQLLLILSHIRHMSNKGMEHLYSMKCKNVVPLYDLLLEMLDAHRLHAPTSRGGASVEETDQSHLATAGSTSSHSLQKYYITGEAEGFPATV
Active and inactive are the calls of the source. No cut-off for these calls is given here.
Labels: active, inactive

- CHEMICAL_SMILES: "NCCCCNC(=O)/C=C/c1ccc(C(=C2C3CC4CC(C3)CC2C4)c2ccc(O)cc2)cc1"
  CLASS_NAME: "active"
- CHEMICAL_SMILES: "CCOC(=O)/C=C/c1ccc(C(=C2C3CC4CC(C3)CC2C4)c2ccc(O)cc2)cc1"
  CLASS_NAME: "inactive"
- CHEMICAL_SMILES: "CCCCN(C)C(=O)/C=C/c1ccc(C(=C2C3CC4CC(C3)CC2C4)c2ccc(O)cc2)cc1"
  CLASS_NAME: "inactive"
- CHEMICAL_SMILES: "O=C(O)/C=C/c1ccc(C(=C2C3CC4CC(C3)CC2C4)c2ccc(O)cc2)cc1"
  CLASS_NAME: "active"
- CHEMICAL_SMILES: "NC(=O)/C=C/c1ccc(C(=C2C3CC4CC(C3)CC2C4)c2ccc(O)cc2)cc1"
  CLASS_NAME: "inactive"
- CHEMICAL_SMILES: "CC(C)CCCCCOC(=O)/C=C/c1ccc(C(=C2C3CC4CC(C3)CC2C4)c2ccc(O)cc2)cc1"
  CLASS_NAME: "active"
- CHEMICAL_SMILES: "NCCNC(=O)/C=C/c1ccc(C(=C2C3CC4CC(C3)CC2C4)c2ccc(O)cc2)cc1"
  CLASS_NAME: "active"
- CHEMICAL_SMILES: "O=C(/C=C/c1ccc(C(=C2C3CC4CC(C3)CC2C4)c2ccc(O)cc2)cc1)OCCCCO"
  CLASS_NAME: "active"
- CHEMICAL_SMILES: "CCCCOC(=O)/C=C/c1ccc(C(=C2C3CC4CC(C3)CC2C4)c2ccc(O)cc2)cc1"
  CLASS_NAME: "active"

---

Examples of molecules with documented RBA follow.
target: Estrogen receptor (Homo sapiens); experiment: Displacement of [3H]estradiol from full-length human ERalpha receptor by scintillation counting relative to estradiol
ASSAY_METRIC: RBA (%)

- CHEMICAL_SMILES: "O=C(/C=C/c1ccc(C(=C2C3CC4CC(C3)CC2C4)c2ccc(O)cc2)cc1)NCCCCCO"
  MEASURE_UNIT: "%"
  ASSAY_RESULT: 31
- CHEMICAL_SMILES: "CC(C)CCCCCOC(=O)/C=C/c1ccc(C(=C2C3CC4CC(C3)CC2C4)c2ccc(O)cc2)cc1"
  MEASURE_UNIT: "%"
  ASSAY_RESULT: 2.8
- CHEMICAL_SMILES: "O=C(/C=C/c1ccc(C(=C2C3CC4CC(C3)CC2C4)c2ccc(O)cc2)cc1)OCCCCO"
  MEASURE_UNIT: "%"
  ASSAY_RESULT: 44
- CHEMICAL_SMILES: "NCCNC(=O)/C=C/c1ccc(C(=C2C3CC4CC(C3)CC2C4)c2ccc(O)cc2)cc1"
  MEASURE_UNIT: "%"
  ASSAY_RESULT: 35
- CHEMICAL_SMILES: "COC(=O)/C=C/c1ccc(C(=C2C3CC4CC(C3)CC2C4)c2ccc(O)cc2)cc1"
  MEASURE_UNIT: "%"
  ASSAY_RESULT: 46
- CHEMICAL_SMILES: "NC(=O)/C=C/c1ccc(C(=C2C3CC4CC(C3)CC2C4)c2ccc(O)cc2)cc1"
  MEASURE_UNIT: "%"
  ASSAY_RESULT: 71
- CHEMICAL_SMILES: "CCCCOC(=O)/C=C/c1ccc(C(=C2C3CC4CC(C3)CC2C4)c2ccc(O)cc2)cc1"
  MEASURE_UNIT: "%"
  ASSAY_RESULT: 11
- CHEMICAL_SMILES: "O=C(/C=C/c1ccc(C(=C2C3CC4CC(C3)CC2C4)c2ccc(O)cc2)cc1)NCC(F)(F)F"
  MEASURE_UNIT: "%"
  ASSAY_RESULT: 15
- CHEMICAL_SMILES: "O=C(/C=C/c1ccc(C(=C2C3CC4CC(C3)CC2C4)c2ccc(O)cc2)cc1)NCCO"
  MEASURE_UNIT: "%"
  ASSAY_RESULT: 109
